Measured IC50 by item
Test system: p-ERK in AsPC-1 cells (KRAS G12D mutation)
Experiment: Cell p-ERK assay (HTRF) in AsPC-1 cells
Type: cell-based, human
Conditions: Homo sapiens, ASPC1, 3 h, AsPC-1 cells, 3 h compound incubation, HTRF p-ERK T202/Y204; read-out: AsPC-1 p-ERK IC50
Expressed in pM, but write only the number.

input: Look at this compound and give its reported IC50. CCn1c(-c2cc(C#CCN3CCCOCC3)cnc2[C@H](C)OC)c2c3cc(ccc31)-c1csc(n1)C[C@H](NC(=O)CC(C)C)C(=O)N1CCC[C@H](N1)C(=O)OCC(C)(C)C2 (single isomer, unassigned) [Compound Z803]
output: 850

input: Look at this compound and give its reported IC50. CO[C@@H](C)c1ncc(OCCN2CCS(=O)(=O)CC2)cc1-c1c2c3cc(ccc3n1C(C)C)-c1csc(n1)C[C@H](NC(=O)[C@H]1C[C@@H]1C)C(=O)N1CCC[C@H](N1)C(=O)OCC(C)(C)C2 (atropisomer, axis not shown; (Ra)) [Compound Z603]
output: 600

input: Look at this compound and give its reported IC50. CCn1c(-c2cc(C#CCN3CC(OC)C3)cnc2[C@H](C)OC)c2c3cc(ccc31)-c1csc(n1)C[C@H](NC(=O)[C@H]1[C@H](C)[C@@H]1C)C(=O)N1CCC[C@H](N1)C(=O)OCC(C)(C)C2 (atropisomer, axis not shown; (Ra)) [Compound Z945]
output: 280

# ---- query compound ----
input: Look at this compound and give its reported IC50. CCn1c(-c2cc(C#CCN3CC(F)(F)C3)cnc2[C@H](C)OC)c2c3cc(ccc31)-c1csc(n1)C[C@H](NC(=O)[C@H]1[C@H](C)[C@@H]1C)C(=O)N1CCC[C@H](N1)C(=O)OCC(C)(C)C2 [Compound Z390-1]
output: 340
